Biological target: Androgen receptor (Homo sapiens, UniProt P10275)
Sequence (P10275 whole entry): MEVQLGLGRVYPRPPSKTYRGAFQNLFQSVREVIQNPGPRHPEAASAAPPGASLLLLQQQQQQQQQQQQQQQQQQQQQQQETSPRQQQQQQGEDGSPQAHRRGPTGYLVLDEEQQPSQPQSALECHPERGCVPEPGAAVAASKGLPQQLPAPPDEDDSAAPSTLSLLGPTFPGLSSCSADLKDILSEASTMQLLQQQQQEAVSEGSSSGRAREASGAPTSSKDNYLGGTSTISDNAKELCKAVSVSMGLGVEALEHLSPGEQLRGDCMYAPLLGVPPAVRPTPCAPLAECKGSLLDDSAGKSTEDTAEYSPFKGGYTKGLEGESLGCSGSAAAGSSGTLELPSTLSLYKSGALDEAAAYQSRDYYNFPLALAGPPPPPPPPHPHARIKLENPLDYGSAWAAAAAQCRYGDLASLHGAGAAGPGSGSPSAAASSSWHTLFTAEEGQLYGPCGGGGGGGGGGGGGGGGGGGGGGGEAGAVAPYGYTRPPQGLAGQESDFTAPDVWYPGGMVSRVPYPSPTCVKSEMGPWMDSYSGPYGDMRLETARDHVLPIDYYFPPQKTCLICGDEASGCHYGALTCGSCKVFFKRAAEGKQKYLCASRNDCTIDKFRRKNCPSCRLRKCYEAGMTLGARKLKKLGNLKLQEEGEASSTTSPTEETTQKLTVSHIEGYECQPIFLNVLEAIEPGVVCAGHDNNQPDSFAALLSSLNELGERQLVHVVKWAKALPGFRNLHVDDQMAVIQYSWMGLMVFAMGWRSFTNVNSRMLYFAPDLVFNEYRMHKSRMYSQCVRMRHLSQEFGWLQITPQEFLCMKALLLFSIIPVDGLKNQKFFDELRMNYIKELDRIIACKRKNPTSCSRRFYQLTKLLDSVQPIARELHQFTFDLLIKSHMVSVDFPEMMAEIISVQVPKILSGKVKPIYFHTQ
pIC50: −log10 of the molar value.
measured-parameter: pIC50

Solved entries:
compound	pIC50
CNC(=O)c1ccc2c(c1)CC1(C2)C(=O)N(c2ccc(C#N)c(C(F)(F)F)c2)C(=O)N1C (stereo not drawn)	< 4.52
CNC(=O)c1ccc2c(c1)CC1(C2)NC(=S)N(c2cnc(C#N)c(C(F)(F)F)c2)C1=O (stereo not drawn)	< 4.82

Input: Recall and state the measured pIC50 for CNC(=O)c1ccc2c(c1)CC1(C2)NC(=S)N(c2ccc(C#N)c(C(F)(F)F)c2)C1=O (stereo not drawn) .
Output: 4.95
